- Experimental protocol: Stability of analytes in rat plasma QC samples under processing and storage conditions
- Assay type: in vitro ADME
- Cond: rat plasma, spiked 2 ng/mL, n = 6
Parameter measured: Measured concentration, −70°C for 21 days (ng/mL)
Reply with just the number (in ng/mL).

(Q) // lookup Measured concentration, −70°C for 21 days for C[C@@H]1O[C@@H](Oc2c(-c3ccc(O)c(O)c3)oc3cc(O)cc(O)c3c2=O)[C@H](O)[C@H](O)[C@H]1O [Quercitrin]
(A) 2.0

(Q) // next record O=C(/C=C/c1ccc(O)c(O)c1)O[C@H]1[C@H](O)C[C@](O)(C(=O)O)C[C@H]1O [Cryptochlorogenic acid]
(A) 2.0

(Q) Input O=c1c(O)c(-c2ccc(O)c(O)c2)oc2cc(O)cc(O)c12 [Quercetin]
(A) 1.9

(Q) And then O=c1c(O[C@@H]2O[C@H](CO)[C@H](O)[C@H](O)[C@H]2O)c(-c2ccc(O)c(O)c2)oc2cc(O)cc(O)c12 [Hyperoside] , what is it?
(A) 1.9

(Q) Repeat with COc1cc(-c2oc3cc(O)cc(O)c3c(=O)c2O[C@@H]2O[C@H](CO)[C@@H](O)[C@H](O)[C@H]2O)ccc1O [Isorhamnetin-3-O-glucoside]
(A) 2.1

(Q) How about O=c1cc(-c2ccc(O)c(O)c2)oc2cc(O)cc(O)c12 [Luteolin] ?
(A) 2.0

(Q) Another: O=C(/C=C/c1ccc(O)c(O)c1)O[C@@H]1C[C@](O)(C(=O)O)C[C@@H](O)[C@H]1O [Chlorogenic acid]
(A) 2.1

====

- Experimental protocol: Pharmacokinetic study in rats after oral administration of Semen Cuscutae extract (HPLC-MS/MS of plasma)
- Type: in vivo, Sprague–Dawley rats
- Cond: male, Sprague-Dawley; rat plasma, oral Semen Cuscutae extract 13 g/kg, n = 6; read-out: AUC(0-tn)
Kindly supply the reported log10(AUC) values for the records listed here.
Give log10 of AUC, with AUC taken in ng·h/mL.

(Q) Need log10(AUC) of O=c1c(O[C@@H]2O[C@H](CO)[C@@H](O)[C@H](O)[C@H]2O)c(-c2ccc(O)cc2)oc2cc(O)cc(O)c12 [Astragalin] , thanks.
(A) 2.57

(Q) Next entry: C[C@@H]1O[C@@H](OC[C@H]2O[C@@H](Oc3c(-c4ccc(O)c(O)c4)oc4cc(O)cc(O)c4c3=O)[C@H](O)[C@@H](O)[C@@H]2O)[C@H](O)[C@H](O)[C@H]1O [Rutin]
(A) 3.65

(Q) Param item: COc1cc(-c2oc3cc(O)cc(O)c3c(=O)c2O[C@@H]2O[C@H](CO)[C@@H](O)[C@H](O)[C@H]2O)ccc1O [Isorhamnetin-3-O-glucoside]
(A) 2.24

(Q) Try this compound too: O=c1c(O[C@@H]2O[C@H](CO)[C@H](O)[C@H](O)[C@H]2O)c(-c2ccc(O)c(O)c2)oc2cc(O)cc(O)c12 [Hyperoside]
(A) 2.84

(Q) Continue with O=C(O)/C=C/c1ccc(O)c(O)c1 [Caffeic acid]
(A) 2.79

(Q) Subsequent entry: O=C(/C=C/c1ccc(O)c(O)c1)O[C@@H]1C[C@](O)(C(=O)O)C[C@@H](O)[C@H]1O [Chlorogenic acid]
(A) 3.00

====

- Experimental protocol: Stability of analytes in rat plasma QC samples under processing and storage conditions
- Format: in vitro ADME
- Cond: rat plasma, spiked 250 ng/mL, n = 6
- Procedure: The stability of the 13 analytes was evaluated by QC samples in different processing and storage conditions, including short-term stability (putting the analytes in ambient temperature for 4 h and storing analytes in autosampler for 12 h after treatment), long-term stability (storing the analytes at −70°C for 21 days) and subjecting analytes to three freeze-thaw cycles. All stability experiments were tested in six parallels with low, middle, and high concentrations.
Please respond with reported Measured concentration, −70°C for 21 days for every item in the list.
Write the numeric value and append its unit.

(Q) Given the entry O=c1cc(-c2ccc(O)c(O)c2)oc2cc(O)cc(O)c12 [Luteolin] , report its measured Measured concentration, −70°C for 21 days.
(A) 257.6 ± 5.1 ng/mL

(Q) Can you handle O=c1c(O[C@@H]2O[C@H](CO)[C@@H](O)[C@H](O)[C@H]2O)c(-c2ccc(O)cc2)oc2cc(O)cc(O)c12 [Astragalin] next?
(A) 251.5 ± 8.7 ng/mL

(Q) Thanks! And O=c1c(O[C@@H]2O[C@H](CO)[C@H](O)[C@H](O)[C@H]2O)c(-c2ccc(O)c(O)c2)oc2cc(O)cc(O)c12 [Hyperoside] ?
(A) 256.4 ± 15.8 ng/mL

(Q) Next compound: O=c1cc(-c2ccc(O)cc2)oc2cc(O)cc(O)c12 [Apigenin]
(A) 257.8 ± 8.2 ng/mL

(Q) Moving on to the next compound: O=C(O)/C=C/c1ccc(O)c(O)c1 [Caffeic acid]
(A) 250.2 ± 5.1 ng/mL

(Q) Would you mind doing O=c1c(O)c(-c2ccc(O)cc2)oc2cc(O)cc(O)c12 [Kaempferol] as well?
(A) 257.2 ± 6.4 ng/mL

(Q) How about this compound: O=C(/C=C/c1ccc(O)c(O)c1)O[C@H]1[C@H](O)C[C@](O)(C(=O)O)C[C@H]1O [Cryptochlorogenic acid]
(A) 244.4 ± 7.4 ng/mL

(Q) Moving on to O=C(/C=C/c1ccc(O)c(O)c1)O[C@@H]1C[C@](O)(C(=O)O)C[C@@H](O)[C@H]1O [Chlorogenic acid]
(A) 253.6 ± 7.7 ng/mL

====

- Experimental protocol: Stability of analytes in rat plasma QC samples under processing and storage conditions
- Format: in vitro ADME
- Cond: treated rat plasma sample, spiked 250 ng/mL, n = 6
Assign Measured concentration, autosampler for 12h to each entry below.
Please respond with the number in ng/mL and leave the unit unwritten.

(Q) Request the reported Measured concentration, autosampler for 12h associated with O=C(O)/C=C/c1ccc(O)c(O)c1
(A) 262.6

(Q) Would you mind doing O=c1c(O)c(-c2ccc(O)c(O)c2)oc2cc(O)cc(O)c12 as well?
(A) 245.3

(Q) Another compound: O=C(/C=C/c1ccc(O)c(O)c1)O[C@@H]1C[C@](O)(C(=O)O)C[C@@H](O)[C@H]1O
(A) 253.1

====

- Experimental protocol: Stability of analytes in rat plasma QC samples under processing and storage conditions
- Format: in vitro ADME
- Cond: rat plasma, spiked 250 ng/mL, n = 6
Parameter measured: Measured concentration, three freeze-thaw (ng/mL)
Use ng/mL as the unit, but write only the number.

(Q) Return reported Measured concentration, three freeze-thaw; argument: O=c1cc(-c2ccc(O)c(O)c2)oc2cc(O)cc(O)c12 [Luteolin]
(A) 261.1

(Q) Next up: O=C(/C=C/c1ccc(O)c(O)c1)O[C@H]1[C@H](O)C[C@](O)(C(=O)O)C[C@H]1O [Cryptochlorogenic acid]
(A) 248.9

(Q) Please give the result for O=C(O)/C=C/c1ccc(O)c(O)c1 [Caffeic acid] too.
(A) 255.7

(Q) And the next one, O=c1cc(-c2ccc(O)cc2)oc2cc(O)cc(O)c12 [Apigenin] ?
(A) 262.2

(Q) Same for O=c1c(O[C@@H]2O[C@H](CO)[C@@H](O)[C@H](O)[C@H]2O)c(-c2ccc(O)cc2)oc2cc(O)cc(O)c12 [Astragalin]
(A) 258.6

(Q) Can you handle O=C(/C=C/c1ccc(O)c(O)c1)O[C@@H]1C[C@](O)(C(=O)O)C[C@@H](O)[C@H]1O [Chlorogenic acid] next?
(A) 268.6

(Q) Query O=c1c(O[C@@H]2O[C@H](CO)[C@H](O)[C@H](O)[C@H]2O)c(-c2ccc(O)c(O)c2)oc2cc(O)cc(O)c12 [Hyperoside] next
(A) 254.7

(Q) Same for COc1cc(-c2oc3cc(O)cc(O)c3c(=O)c2O[C@@H]2O[C@H](CO)[C@@H](O)[C@H](O)[C@H]2O)ccc1O [Isorhamnetin-3-O-glucoside]
(A) 255.0

====

Assign Measured concentration, autosampler for 12h to each entry below.
- Experimental protocol: Stability of analytes in rat plasma QC samples under processing and storage conditions
- Type: in vitro ADME
- Cond: treated rat plasma sample, spiked 25 ng/mL, n = 6
Give the number; ng/mL is assumed, so skip it.

(Q) Query (compound): O=C(/C=C/c1ccc(O)c(O)c1)O[C@H]1[C@H](O)C[C@](O)(C(=O)O)C[C@H]1O ; field requested: Measured concentration, autosampler for 12h
(A) 27.3

(Q) Do the same for O=c1c(O)c(-c2ccc(O)cc2)oc2cc(O)cc(O)c12 please
(A) 25.4

(Q) Can you check O=c1cc(-c2ccc(O)cc2)oc2cc(O)cc(O)c12 next?
(A) 25.0

(Q) Ok, now COc1cc(-c2oc3cc(O)cc(O)c3c(=O)c2O[C@@H]2O[C@H](CO)[C@@H](O)[C@H](O)[C@H]2O)ccc1O [Isorhamnetin-3-O-glucoside]
(A) 26.9

(Q) Consider next the compound O=c1cc(-c2ccc(O)c(O)c2)oc2cc(O)cc(O)c12 in the same way.
(A) 25.6

(Q) Next: O=c1c(O[C@@H]2O[C@H](CO)[C@@H](O)[C@H](O)[C@H]2O)c(-c2ccc(O)cc2)oc2cc(O)cc(O)c12
(A) 27.3

(Q) Here is the next compound: O=c1c(O[C@@H]2O[C@H](CO)[C@H](O)[C@H](O)[C@H]2O)c(-c2ccc(O)c(O)c2)oc2cc(O)cc(O)c12 [Hyperoside]
(A) 23.6
